TESTED_SYSTEM: Phosphatidylinositol 4,5-bisphosphate 3-kinase catalytic subunit delta isoform (Homo sapiens, UniProt O00329)
Sequence (O00329 whole entry): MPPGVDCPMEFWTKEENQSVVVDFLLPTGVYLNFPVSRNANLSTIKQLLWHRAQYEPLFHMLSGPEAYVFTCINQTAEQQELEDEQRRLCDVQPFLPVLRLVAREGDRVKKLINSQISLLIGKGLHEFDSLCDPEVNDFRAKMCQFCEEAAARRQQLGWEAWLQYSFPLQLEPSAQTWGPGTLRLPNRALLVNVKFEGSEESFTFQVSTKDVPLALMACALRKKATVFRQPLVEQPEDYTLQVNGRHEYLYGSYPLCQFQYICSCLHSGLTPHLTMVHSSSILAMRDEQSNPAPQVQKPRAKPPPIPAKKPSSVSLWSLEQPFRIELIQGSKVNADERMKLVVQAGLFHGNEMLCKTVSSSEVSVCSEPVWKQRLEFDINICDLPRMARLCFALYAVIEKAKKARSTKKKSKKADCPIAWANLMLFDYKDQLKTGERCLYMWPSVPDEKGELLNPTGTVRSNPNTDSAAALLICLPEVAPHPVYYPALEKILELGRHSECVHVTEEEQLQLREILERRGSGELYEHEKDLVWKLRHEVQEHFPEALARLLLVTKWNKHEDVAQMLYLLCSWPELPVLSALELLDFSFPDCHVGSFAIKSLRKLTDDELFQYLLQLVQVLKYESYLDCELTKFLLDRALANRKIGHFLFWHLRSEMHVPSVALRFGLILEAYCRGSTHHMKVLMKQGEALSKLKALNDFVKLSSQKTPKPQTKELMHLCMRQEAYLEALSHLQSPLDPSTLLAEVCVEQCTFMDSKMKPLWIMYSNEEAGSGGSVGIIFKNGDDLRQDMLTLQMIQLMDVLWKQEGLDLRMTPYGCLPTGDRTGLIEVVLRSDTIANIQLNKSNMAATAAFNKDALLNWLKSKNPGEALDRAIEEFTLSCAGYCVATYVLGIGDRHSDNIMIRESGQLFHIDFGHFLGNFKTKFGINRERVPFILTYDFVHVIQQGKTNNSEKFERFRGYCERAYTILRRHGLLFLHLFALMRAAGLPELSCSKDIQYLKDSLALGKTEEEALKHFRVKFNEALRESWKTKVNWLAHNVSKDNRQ
PROTOCOL_DETAILS: Inhibition Assays of p110α/p85α, p110β/p85α, p110δ/p85α, and p110γ
# IC50 values compiled below

# COMPOUND, IC50
measured = [
    ("C[C@H](Nc1ncnc2[nH]cnc12)c1cc2cccc(Cl)c2c(=O)n1-c1cccc(Cl)c1 [US20250170122, Compound 365]", "< 0.1 µM"),
    ("C[C@H](Nc1ncnc2[nH]cnc12)c1cc2cccc(Cl)c2c(=O)n1-c1cccc(C(F)(F)F)c1 [US20250170122, Compound 366]", "< 0.1 µM"),
    ("C[C@H](Nc1nc(N)ncc1C(F)(F)F)c1cc2cccc(Cl)c2c(=O)n1-c1ccccc1 [US20250170122, Compound 346]", "< 0.1 µM"),
    ("Cc1cccc2cc(Cn3nc(-c4ccc(Cl)c(O)c4)c4c(N)ncnc43)n(C3CCCC3)c(=O)c12 [US20250170122, Compound 71]", "< 1 µM"),
    ("C[C@H](Nc1ncnc2[nH]cnc12)c1cc2cccc(F)c2c(=O)n1-c1ccccc1 [US20250170122, Compound 330]", "< 0.1 µM"),
    ("Nc1ncnc2c1c(-c1cn[nH]c1)nn2Cc1cc2cccc(Cl)c2c(=O)n1-c1ccccc1F [US20250170122, Compound 337]", "< 0.1 µM"),
    ("C[C@H](Nc1ncnc2[nH]cnc12)c1cc2cccc(F)c2c(=O)n1-c1cccc(F)c1 [US20250170122, Compound 331]", "< 0.1 µM"),
    ("CC(C)[C@H](Nc1ncnc2[nH]cnc12)c1cc2cccc(Cl)c2c(=O)n1-c1ccccc1 [US20250170122, Compound 364]", "< 0.1 µM"),
    ("Cc1cccc2cc(Cn3nc(-c4ccc(O)cc4)c4c(N)ncnc43)n(-c3ccccc3F)c(=O)c12 [US20250170122, Compound 46]", "< 10 µM"),
    ("CC(=O)Nc1nc2ccc(-c3nn(Cc4cc5cccc(C)c5c(=O)n4-c4ccccc4)c(C)c3CN)cc2s1 [US20250170122, Compound 177]", "< 0.1 µM"),
    ("Cc1ccccc1-n1c(Cn2nc(-c3cn[nH]c3)c3c(N)ncnc32)cc2cccc(Cl)c2c1=O [US20250170122, Compound 336]", "< 0.1 µM"),
    ("C[C@H](Nc1ncnc2[nH]cnc12)c1cc2cccc(Cl)c2c(=O)n1-c1ccc(F)cc1 [US20250170122, Compound 329]", "< 0.1 µM"),
    ("C[C@H](Nc1ncnc2sccc12)c1cc2cccc(Cl)c2c(=O)n1-c1ccccc1 [US20250170122, Compound 343]", "< 0.1 µM"),
    ("C[C@H](Nc1ncnc2[nH]cnc12)c1cc2cccc(Cl)c2c(=O)n1-c1cccc(F)c1 [US20250170122, Compound 328]", "< 0.1 µM"),
    ("Cc1cccc2cc(Cn3nc(I)c4c(N)ncnc43)n(C3CCCC3)c(=O)c12 [US20250170122, Compound 57]", "< 1 µM"),
    ("CNc1ncc(C(F)(F)F)c(N[C@@H](C)c2cc3cccc(Cl)c3c(=O)n2-c2ccccc2)n1 [US20250170122, Compound 354]", "< 0.1 µM"),
    ("Nc1ncnc2c1c(-c1cn[nH]c1)nn2Cc1cc2cccc(Cl)c2c(=O)n1-c1cccc(F)c1 [US20250170122, Compound 339]", "< 0.1 µM"),
    ("C[C@H](Nc1ncnc2[nH]cnc12)c1cc2ncccc2c(=O)n1-c1ccccc1 [US20250170122, Compound 357]", "< 0.1 µM"),
    ("CC(C)C[C@H](Nc1ncnc2[nH]cnc12)c1cc2cccc(Cl)c2c(=O)n1-c1ccccc1 [US20250170122, Compound 363]", "< 0.1 µM"),
    ("Nc1ncnc2c1c(-c1cn[nH]c1)nn2Cc1cc2cccc(Cl)c2c(=O)n1-c1ccccc1 [US20250170122, Compound 338]", "< 0.1 µM"),
]

Reference source for all entries: BindingDB's records for patent US20250170122
